CC50 at 72 h for assorted compounds
# assay-details: Cytotoxicity assay (MTT) in MDCK cells
# Assay type: cell-based, Canine
# condition-label: dog, read-out: CC50 (50% cytotoxic concentration)
# Method: Initially, maximum non-toxic concentrations were determined for compounds 1–22 to exclude their non-specific antiviral activity. […] The MDCK cells were seeded onto 96-well culture plates (10^4 cells per well) and incubated at 36 °C in 5% CO2 until continuous monolayer formation. […] The optical density (OD) of the cells was measured on a Thermo Multiskan FC spectrophotometer (Thermo Fisher Scientific, Waltham, MA, USA) at a wavelength of 540 nm. […]

{"compound": "COC(=O)[C@]12CCC(C)(C)CC1C1=CCC3[C@@]4(C)CC[C@H](NC(=O)c5ccccc5C(=O)O)C(C)(C)C4CC[C@@]3(C)[C@]1(C)CC2 (stereo partly drawn) [Compound 22]", "CC50 at 72 h": "> 486 µM"}
{"compound": "CC1(C)CC[C@]2(C(=O)N3CCCN(CC#N)CC3)CC[C@]3(C)C(=CCC4[C@@]5(C)CCC(=O)C(C)(C)C5CC[C@]43C)C2C1 (stereo partly drawn) [Compound 11]", "CC50 at 72 h": "> 522 µM"}
{"compound": "CC1(C)CC[C@]2(C(=O)NCCCNCCCCNCCCN)CC[C@]3(C)C(=CCC4[C@@]5(C)Cc6c([nH]c7ccccc67)C(C)(C)C5CC[C@]43C)C2C1 (stereo partly drawn) [Compound 8]", "CC50 at 72 h": "> 140 µM"}
{"compound": "CCOC(=O)CNC(=O)CN(Cc1ccccc1)C(=O)[C@]12CCC(C)(C)CC1C1=CCC3[C@@]4(C)CCC(=O)C(C)(C)C4CC[C@@]3(C)[C@]1(C)CC2 (stereo partly drawn) [Compound 9]", "CC50 at 72 h": "> 437 µM"}
{"compound": "CCC(CC)O[C@@H]1C=C(C(=O)O)C[C@H](N)[C@H]1NC(C)=O [Oseltamivir carboxylate, reference compound]", "CC50 at 72 h": "> 200 µM"}
{"compound": "CC1(C)CC[C@]2(C(=O)N3CCCNCC3)CC[C@]3(C)C(=CCC4[C@@]5(C)CCC(=O)C(C)(C)C5CC[C@]43C)C2C1 (stereo partly drawn) [Compound 2]", "CC50 at 72 h": "> 560 µM"}

====

melting point for assorted compounds
quantity-name: melting point

{"compound": "CC1(C)CC[C@]2(C(=O)N3CCCNCC3)CC[C@]3(C)C(=CCC4[C@@]5(C)Cc6c([nH]c7ccccc67)C(C)(C)C5CC[C@]43C)C2C1 (stereo partly drawn) [Compound 7]", "quantity-name": "melting point", "recorded-result": "> 200 °C"}
{"compound": "CCOC(=O)CNC(=O)CN(Cc1ccccc1)C(=O)[C@]12CCC(C)(C)CC1C1=CCC3[C@@]4(C)CCC(=O)C(C)(C)C4CC[C@@]3(C)[C@]1(C)CC2 (stereo partly drawn) [Compound 9]", "quantity-name": "melting point", "recorded-result": "245 to 247 °C"}
{"compound": "CCOC(=O)CNC(=O)CN(Cc1ccccc1)C(=O)[C@]12CCC(C)(C)CC1C1=CCC3[C@@]4(C)Cc5c([nH]c6ccccc56)C(C)(C)C4CC[C@@]3(C)[C@]1(C)CC2 (stereo partly drawn) [Compound 10]", "quantity-name": "melting point", "recorded-result": "197 to 199 °C"}
